Test: acute toxicity on mice (LD50, i.p.)
Type: in vivo
Conditions: mouse, in vivo, ip
assay-endpoint: LD50

Prompt line: LD50 for CCOCN1c2cc(OC)c(C3(C(=O)OC)CC4CN(CCc5c3[nH]c3ccccc53)CC(O)(CC)C4)cc2C23CCN4CC=CC(CC)(C(OC(C)=O)C(O)(C(=O)OC)C12)C43 (stereo not shown) [RGH-4451] ?
Response line: 70 mg/kg
